Catalogue of Percent Effect readings, one per entry.
- EXPERIMENTAL SYSTEM: Ubiquitin-activating enzyme e1, putative (Leishmania donovani (strain BPK282A1)) (UniProt E9BSI1)
- Sequence (whole entry): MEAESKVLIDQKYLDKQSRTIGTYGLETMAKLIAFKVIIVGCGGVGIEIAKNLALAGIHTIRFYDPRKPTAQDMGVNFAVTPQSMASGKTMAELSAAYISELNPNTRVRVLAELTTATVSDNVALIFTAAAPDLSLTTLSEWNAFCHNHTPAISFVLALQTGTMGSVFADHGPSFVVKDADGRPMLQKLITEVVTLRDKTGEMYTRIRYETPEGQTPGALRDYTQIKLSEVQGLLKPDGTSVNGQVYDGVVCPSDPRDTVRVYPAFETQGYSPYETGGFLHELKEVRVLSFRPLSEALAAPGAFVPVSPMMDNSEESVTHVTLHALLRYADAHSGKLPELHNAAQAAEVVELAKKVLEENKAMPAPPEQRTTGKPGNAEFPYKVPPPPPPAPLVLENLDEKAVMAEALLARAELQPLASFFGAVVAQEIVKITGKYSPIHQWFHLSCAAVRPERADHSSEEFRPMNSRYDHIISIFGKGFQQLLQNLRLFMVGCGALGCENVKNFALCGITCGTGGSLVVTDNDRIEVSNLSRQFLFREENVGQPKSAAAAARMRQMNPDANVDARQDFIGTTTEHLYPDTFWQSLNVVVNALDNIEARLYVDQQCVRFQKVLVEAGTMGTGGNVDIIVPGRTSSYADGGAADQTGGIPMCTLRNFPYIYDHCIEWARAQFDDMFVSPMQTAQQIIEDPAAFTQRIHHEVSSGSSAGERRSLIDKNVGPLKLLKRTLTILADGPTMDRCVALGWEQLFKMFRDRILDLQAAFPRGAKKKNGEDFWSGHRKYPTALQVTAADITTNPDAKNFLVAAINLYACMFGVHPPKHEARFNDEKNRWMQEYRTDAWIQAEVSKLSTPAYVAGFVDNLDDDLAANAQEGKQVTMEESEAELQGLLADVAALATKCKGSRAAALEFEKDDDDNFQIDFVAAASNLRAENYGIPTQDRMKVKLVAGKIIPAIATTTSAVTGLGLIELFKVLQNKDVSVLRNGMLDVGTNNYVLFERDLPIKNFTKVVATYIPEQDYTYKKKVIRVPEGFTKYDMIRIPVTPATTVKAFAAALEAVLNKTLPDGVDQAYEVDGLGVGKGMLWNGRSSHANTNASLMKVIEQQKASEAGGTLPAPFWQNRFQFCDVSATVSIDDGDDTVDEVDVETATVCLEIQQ
- METHOD DESCRIPTION: Leishmania donovani Ubiquitin Activating Enzyme (LdE1)
- Assay type: functional
- Set-up: scale not given: direction of the effect not stated beside the values
- CONDITIONS: 30 µM
Potency and affinity values are given separately.

# COMPOUND, Percent Effect, %
data = [
    ("CCn1ncc2c1C(COC)CN(Cc1ccc(OC)cc1)C2 (stereo not drawn)", 5.41),
    ("O=S(=O)(Nc1cnn(C2CCOCC2)c1)c1ccc(F)c(F)c1", -2.6),
    ("O=C(NCC1CC1)C1CN(C(=O)c2cccs2)CC12CCOCC2 (stereo not drawn)", 16),
    ("COc1cc(CNCc2c(C)nn(C)c2N(C)C)ccn1", 5.41),
    ("CC1c2ncc(CN3CCN(C)CC3)n2CCN1CC1CC1 (stereo not drawn)", 18.7),
    ("Cc1csc(N2CCN(C(=O)CCc3nccs3)CC2)n1", 8.11),
    ("O=C1COc2c(cccc2C(=O)N2CCCCC2Cn2cccn2)N1 (stereo not drawn)", 10.4),
    ("CCc1nc(C2CCCN2Cc2nc3ccccc3o2)no1 (stereo not drawn)", 2.6),
    ("Cc1cnn(CC2CCCN2C(=O)c2ccc(OC(C)C)nc2)c1 (stereo not drawn)", -2.56),
    ("CCc1nccn1C1CCCN(C(=O)c2cnn3ccc(C)nc23)C1 (stereo not drawn)", -2.7),
    ("Cc1cccc(NC2CCN(C(=O)Nc3cc(F)cc(F)c3)CC2)n1", 7.59),
    ("CC(Cn1ccnc1)NC(=O)NCCc1ccc2c(c1)OCCO2 (stereo not drawn)", 18.2),
    ("Cc1ccccc1N1CC2(CCN(S(=O)(=O)C3CC3)C2)CC1=O (stereo not drawn)", 16.9),
    ("c1cnn(Cc2nnc3n2CCCN(CC2CCOCC2)C3)c1", 1.3),
    ("Cc1ccc(NC2CCN(C(=O)c3c(C)noc3C)CC2)nn1", 13.2),
    ("CCn1ncnc1C1CC(=O)NCc2nc3ccccn3c21 (stereo not drawn)", 10.8),
    ("COc1ccc(NC(=O)CCc2c(C)nc3cc(O)nn3c2C)cn1", 0),
    ("c1cnn(CC2CCCCN2Cc2cn3ccsc3n2)c1 (stereo not drawn)", 10.3),
    ("Cc1ccc(S(=O)(=O)N2CCOc3ccccc32)cc1C(=O)O", -5.13),
    ("CCOc1ncccc1NC(=O)N1CCN(c2cccc(C)c2C)CC1", 10.8),
    ("CCc1c(C)nn(CCNC(=O)C2CCCN(C(=O)N(C)C)C2)c1C (stereo not drawn)", 5.41),
    ("O=C(CCN1CCCN(c2nccs2)CC1)Nc1ccccc1", 10.7),
    ("CCc1nc(C2CCCN2C(=O)c2ncoc2CC)no1 (stereo not drawn)", 7.69),
    ("O=C(CCc1cccnc1)N1CCCC(n2cncn2)C1 (stereo not drawn)", 0),
    ("CCn1cc(C(=O)N2CCCC(c3[nH]ncc3S(C)(=O)=O)C2)cn1 (stereo not drawn)", 12),
    ("O=C(Cn1cccnc1=O)NCCc1ccc2c(c1)OCCO2", 16),
    ("O=C(O)c1cc(S(=O)(=O)Nc2cc(F)ccc2F)cc2c1OCCO2", -2.63),
    ("CC1CN(C)c2ccccc2CN1C(=O)c1ccc[nH]1 (stereo not drawn)", 5.48),
    ("Cc1ccc(C(=O)N2CCN(CCc3cccs3)CC2)c(=O)[nH]1", 2.56),
    ("CC(CNC(=O)N1CCN(CC(F)F)CC1)Cc1cccs1 (stereo not drawn)", 2.7),
    ("CN(CCO)C(=O)c1coc(CN2CCN(c3ccccc3F)CC2)n1", 13.3),
    ("Cc1nn(C)c(C)c1C1CCCN1C(=O)c1cnc2n[nH]c(C)c2c1 (stereo not drawn)", 16.2),
    ("CN(CC(=O)N1CCC(C(O)c2ccccc2)CC1)c1cnccn1 (stereo not drawn)", 10.8),
    ("CCc1ncc2c(n1)CN(Cc1nc(-c3ccsc3)no1)CC2", -18.4),
    ("CN1[C@@H](C(=O)NCC2CC2)C[C@@H]2CN(Cc3ccco3)C[C@@H]21", 19.5),
    ("CCc1cc(C(=O)N2CCCC2c2nc(C)c(F)c(O)n2)on1 (stereo not drawn)", 17.3),
    ("O=C(CN1CCOC(Cn2cccn2)C1)Nc1nncs1 (stereo not drawn)", 10.4),
    ("COC(=O)CCC(=O)N1CCc2[nH]nc(-c3ccc(F)c(F)c3)c2C1", 0),
    ("Cc1nc(C)n(CC2CN(Cc3cccc4c3OCCO4)CCO2)n1 (stereo not drawn)", 18.4),
    ("Cc1ccc(CN2CCC3(CC(C(=O)NCC4CC4)=NO3)C2)cc1C (stereo not drawn)", 2.67),
    ("Cc1nc(NC(=O)CNC(=O)c2c(F)cccc2Cl)n[nH]1", 13.2),
    ("CC(C)CN1CCc2[nH]cnc2C12CCN(C(=O)c1cccnc1)CC2", 0),
    ("O=C(CS(=O)(=O)c1ccccc1Cl)NC1CCCCNC1=O (stereo not drawn)", 13),
    ("O=C(NCCN1CCC(c2cccs2)CC1)Nc1cccs1", 0),
    ("COC(=O)CCNC(=O)c1ccoc1CN1c2ccccc2CC1C (stereo not drawn)", 0),
    ("c1cnn(CC2CN(Cc3ccc(-n4ccnc4)cc3)CCO2)c1 (stereo not drawn)", 17.7),
    ("Cc1ncsc1C(=O)NCc1cccs1", 16.2),
    ("Cn1nc(CNC(=O)c2ccc(Cl)cc2)c2c1CCOC2", 2.6),
]
